Value source: patent US20090312364A1

biological target: dopamine (DA) reuptake in synaptosomes (Rattus norvegicus, UniProt P23977); construct: in synaptosomes as described in WO 97/16451; test: In vitro inhibition of DA reuptake in synaptosomes; conditions: 3H-DA, as described in WO 97/16451, read-out: DA-uptake IC50
Sequence (P23977 whole entry): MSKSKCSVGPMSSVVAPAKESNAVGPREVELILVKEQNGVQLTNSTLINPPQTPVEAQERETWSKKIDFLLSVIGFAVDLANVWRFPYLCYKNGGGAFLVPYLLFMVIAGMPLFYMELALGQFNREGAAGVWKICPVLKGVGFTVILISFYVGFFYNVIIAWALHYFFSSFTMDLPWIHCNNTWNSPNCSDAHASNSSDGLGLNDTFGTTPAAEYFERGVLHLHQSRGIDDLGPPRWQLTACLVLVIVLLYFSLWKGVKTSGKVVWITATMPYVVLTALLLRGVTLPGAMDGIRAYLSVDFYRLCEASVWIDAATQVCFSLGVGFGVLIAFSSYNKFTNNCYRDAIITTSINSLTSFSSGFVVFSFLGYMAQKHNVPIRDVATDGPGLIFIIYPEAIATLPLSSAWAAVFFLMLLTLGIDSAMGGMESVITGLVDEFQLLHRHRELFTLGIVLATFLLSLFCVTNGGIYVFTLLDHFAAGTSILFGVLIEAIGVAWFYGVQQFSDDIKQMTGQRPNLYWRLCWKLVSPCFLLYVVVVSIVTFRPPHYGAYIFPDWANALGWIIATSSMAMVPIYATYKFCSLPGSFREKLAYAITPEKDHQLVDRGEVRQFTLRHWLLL
Listed molecules paired with reported IC50
Answer in nM, number only, no unit symbol.

Query: What value of measured IC50 is listed for O=c1oc2cc(O[C@@H]3C[C@H]4CC[C@@H](C3)N4)ccc2cc1-c1cccc(F)c1 ?
Reply: 28

---
Query: What value of measured IC50 is listed for O=c1oc2cc(O[C@@H]3C[C@H]4CC[C@@H](C3)N4)ccc2cc1-c1ccccc1 ?
Reply: 48
